In this section we review reported inhibition at 100 µM values for a set of compounds.
TESTED_ON: HCV-NS5b (Hepatitis C virus genotype 1b)
Construct: (His)6 (C); made in house; host or cells: XL-1 cells (E. coli), IPTG-inducible plasmid, nickel-NTA purification
EXPERIMENT_SUMMARY: HCV-NS5b enzyme assay (incorporation of radiolabeled UTP)
Format: biochemical
PARTICULARS: read-out: % inh@100, enzyme inhibition at compound concentration of 100 uM
READOUT_NAME: inhibition at 100 µM (%)

>  <SMILES_REPRESENTATION>
CN(C)c1cc(-c2ccccc2)nc2ccc(-c3nc4cc(C(=O)O)ccc4n3C3CCCCC3)cc12

>  <TESTED_ON>
HCV-NS5b (Hepatitis C virus genotype 1b)

>  <READOUT_UNITS>
%

>  <REPORTED_RESULT>
96.7

$$$$
>  <SMILES_REPRESENTATION>
O=C(O)c1ccc2c(c1)nc(-c1ccc3nc(-c4ccc[nH]4)ccc3c1)n2C1CCCCC1

>  <TESTED_ON>
HCV-NS5b (Hepatitis C virus genotype 1b)

>  <READOUT_UNITS>
%

>  <REPORTED_RESULT>
99.7

$$$$
>  <SMILES_REPRESENTATION>
COc1ccc(-c2ccccc2OC)c(-c2ccc3cc(-c4nc5cc(C(=O)O)ccc5n4C4CCCCC4)ccc3n2)c1

>  <TESTED_ON>
HCV-NS5b (Hepatitis C virus genotype 1b)

>  <READOUT_UNITS>
%

>  <REPORTED_RESULT>
101

$$$$
>  <SMILES_REPRESENTATION>
O=C(N[C@@H](Cc1ccccc1)C(=O)O)c1ccc2c(c1)nc(-c1ccc3nc(-c4ccccc4)cnc3c1)n2C1CCCCC1

>  <TESTED_ON>
HCV-NS5b (Hepatitis C virus genotype 1b)

>  <READOUT_UNITS>
%

>  <REPORTED_RESULT>
96.4

$$$$
>  <SMILES_REPRESENTATION>
O=C(O)[C@@H]1CCCN1C(=O)c1ccc2c(c1)nc(-c1ccc3nc(-c4ccccc4)ccc3c1)n2C1CCCCC1

>  <TESTED_ON>
HCV-NS5b (Hepatitis C virus genotype 1b)

>  <READOUT_UNITS>
%

>  <REPORTED_RESULT>
88.2

$$$$
>  <SMILES_REPRESENTATION>
COc1ccc(-c2ccc(Cl)cc2)c(-c2ccc3cc(-c4nc5cc(C(=O)O)ccc5n4C4CCNCC4)ccc3n2)c1

>  <TESTED_ON>
HCV-NS5b (Hepatitis C virus genotype 1b)

>  <READOUT_UNITS>
%

>  <REPORTED_RESULT>
77.3

$$$$
>  <SMILES_REPRESENTATION>
O=C(O)c1ccc2c(c1)nc(-c1ccc3nc(-c4ccc(Oc5ccccc5)cc4)ccc3c1)n2C1CCCCC1

>  <TESTED_ON>
HCV-NS5b (Hepatitis C virus genotype 1b)

>  <READOUT_UNITS>
%

>  <REPORTED_RESULT>
99.6

$$$$

Source listed as patent US7511145B2.
